# experiment: M. tuberculosis H37Rv growth inhibitors, H37Rv strain (AID 1626);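 further: bacteria incubated seven days before Alamar blue readout; 0% = bacteria only wells and 100% = bacteria with antibiotic wells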
# test settings: stronger effect = higher value, concentration not given here
About 2,000 (0.91%) of roughly 220,000 compounds were called active. Not shown: some 2% with an inconclusive outcome. A selection follows. Entries with a potency or affinity are not part of this list.

[
  {
    "query smiles": "Cc1ccc(CNC(=O)c2ccc(Br)o2)cc1",
    "inhibition, %": 6.85
  },
  {
    "query smiles": "Cc1cccc(C)c1OCc1nc2ccccc2[nH]1",
    "inhibition, %": -5.31
  },
  {
    "query smiles": "O=C(NCc1cccnc1)c1ccc([N+](=O)[O-])o1",
    "inhibition, %": 9.87
  },
  {
    "query smiles": "CCCSc1nnc(Cn2c(=O)sc3ccccc32)n1C",
    "inhibition, %": 3.51
  },
  {
    "query smiles": "O=C(Nc1ccc2oc(-c3cccnc3)nc2c1)c1ccc(Br)o1",
    "inhibition, %": -4.68
  },
  {
    "query smiles": "O=C(Nc1ccc2oc(-c3cccnc3)nc2c1)c1ccco1",
    "inhibition, %": -0.84
  }
]

====

# experiment: M. tuberculosis H37Rv growth inhibitors, H37Rv strain (AID 1626);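 further: bacteria incubated seven days before Alamar blue readout; 0% = bacteria only wells and 100% = bacteria with antibiotic wells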
# test settings: stronger effect = higher value, concentration not given here
Screen size: about 220,000 compounds; about 2,000 (0.91%) were called active. Inconclusive results (about 2%) are left out. Only a sample is shown. Results with a measured potency or affinity are listed apart.
measured attribute: inhibition (%)

[
  {
    "compound": "COc1ccc(C2C=C(C34CC5CC(CC(C5)C3)C4)NC(=S)N2)cc1 (stereo unspecified)",
    "unit descriptor": "%",
    "result number": 1.23
  },
  {
    "compound": "O=[N+]([O-])c1cc(/C=N\\Nc2nc(-c3ccccc3)cs2)ccc1O",
    "unit descriptor": "%",
    "result number": -2.52
  },
  {
    "compound": "CC/C(=N\\NC(=O)c1cccnc1)c1ccc2c(c1)OCCO2",
    "unit descriptor": "%",
    "result number": 3.21
  },
  {
    "compound": "O=C(N/N=C/c1ccc2c(c1)OCO2)c1cc(-c2ccccc2Cl)nc2ccccc12",
    "unit descriptor": "%",
    "result number": 4.7
  },
  {
    "compound": "CC1=NN(C(=O)c2ccco2)C(O)(c2ccccc2)C1 (stereo unspecified)",
    "unit descriptor": "%",
    "result number": -2.5
  },
  {
    "compound": "Cc1nccn1CC(=O)N/N=C/c1c[nH]c2ccccc12",
    "unit descriptor": "%",
    "result number": 3.79
  }
]

====

# experiment: M. tuberculosis H37Rv growth inhibitors, H37Rv strain (AID 1626);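 further: bacteria incubated seven days before Alamar blue readout; 0% = bacteria only wells and 100% = bacteria with antibiotic wells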
# test settings: stronger effect = higher value, concentration not given here
Screen size: about 220,000 compounds; about 2,000 (0.91%) were called active. Not shown: some 2% with an inconclusive outcome. A selection follows. Entries with a potency or affinity are not part of this list.
measured attribute: inhibition (%)

[
  {
    "compound": "COCCSc1nnc(NS(=O)(=O)c2ccc(C)cc2)s1",
    "measured attribute": "inhibition",
    "unit descriptor": "%",
    "result number": -4.12
  },
  {
    "compound": "Cc1cccc(CN2CCCC(C(=O)c3ccc4c(c3)OCO4)C2)n1 (stereo not drawn)",
    "measured attribute": "inhibition",
    "unit descriptor": "%",
    "result number": 9.77
  },
  {
    "compound": "COc1ccc(NC(=O)C(NC(=O)CNC(C)=O)c2ccc(C)cc2)cc1 (stereo not drawn)",
    "measured attribute": "inhibition",
    "unit descriptor": "%",
    "result number": -6.91
  },
  {
    "compound": "C#CCOCCOCCOCCNc1nc(N2CCN(C(=O)[C@H](CCCCN)n3cc([C@@H](N)CC(C)C)nn3)CC2)nc(N2CCN(C(=O)[C@H](Cc3cc4ccccc4[nH]3)n3cc([C@@H](N)Cc4ccc(O)cc4)nn3)CC2)n1",
    "measured attribute": "inhibition",
    "unit descriptor": "%",
    "result number": 59
  },
  {
    "compound": "CCC(=O)NNC(=O)c1cc(COc2cc(Cl)cc(Cl)c2)on1",
    "measured attribute": "inhibition",
    "unit descriptor": "%",
    "result number": 13.9
  },
  {
    "compound": "CCOC(=O)c1sc(-c2ccc(C(F)(F)F)cc2)nc1O",
    "measured attribute": "inhibition",
    "unit descriptor": "%",
    "result number": -1.38
  },
  {
    "compound": "Cn1cc(C(N)=O)c2ccccc21",
    "measured attribute": "inhibition",
    "unit descriptor": "%",
    "result number": -2.82
  },
  {
    "compound": "O=C(O)CSc1nnc(COc2cccc3ccccc23)n1Cc1ccccc1",
    "measured attribute": "inhibition",
    "unit descriptor": "%",
    "result number": -1.72
  },
  {
    "compound": "FC(F)(F)c1nnc2ccc(N3CCCC3)nn12",
    "measured attribute": "inhibition",
    "unit descriptor": "%",
    "result number": -2.32
  },
  {
    "compound": "CN1CCN(C(=O)c2ccc(CSc3nc4ccncc4n3Cc3ccc(F)cc3)cc2)CC1",
    "measured attribute": "inhibition",
    "unit descriptor": "%",
    "result number": -0.01
  },
  {
    "compound": "COc1ccc(-c2nnc(SCC(=O)N3CCCCC3)o2)c(OC)c1",
    "measured attribute": "inhibition",
    "unit descriptor": "%",
    "result number": 3.89
  },
  {
    "compound": "O=C(Nc1nccs1)c1cc(-c2ccncc2)nc2ccccc12",
    "measured attribute": "inhibition",
    "unit descriptor": "%",
    "result number": -1.16
  },
  {
    "compound": "CCN(CC)CCCNc1cc(C)nc2cc(-c3cccs3)nn12",
    "measured attribute": "inhibition",
    "unit descriptor": "%",
    "result number": -2.4
  },
  {
    "compound": "Cc1ccc(NC(=O)CSC2=NCCN2)cc1",
    "measured attribute": "inhibition",
    "unit descriptor": "%",
    "result number": -0.03
  },
  {
    "compound": "CCOc1ccc(NC(=O)CSc2nccn2C)cc1",
    "measured attribute": "inhibition",
    "unit descriptor": "%",
    "result number": -4.59
  },
  {
    "compound": "O=C(Nc1ccccc1-c1nnc(SCc2ccccc2)o1)c1ccccc1",
    "measured attribute": "inhibition",
    "unit descriptor": "%",
    "result number": 8.97
  },
  {
    "compound": "Clc1nc(-c2cccnc2)nc2scc(-c3ccccc3)c12",
    "measured attribute": "inhibition",
    "unit descriptor": "%",
    "result number": 8.19
  },
  {
    "compound": "COc1ccc(C(=O)C2CCCN(Cc3cccc(C)n3)C2)c(OC)c1 (stereo not drawn)",
    "measured attribute": "inhibition",
    "unit descriptor": "%",
    "result number": -9.04
  },
  {
    "compound": "COc1ccccc1NC(=S)N(CCCN1CCOCC1)Cc1cccs1",
    "measured attribute": "inhibition",
    "unit descriptor": "%",
    "result number": -3.58
  },
  {
    "compound": "COc1c(C)cc(C(=O)C2CCCN(Cc3ccccn3)C2)cc1C (stereo not drawn)",
    "measured attribute": "inhibition",
    "unit descriptor": "%",
    "result number": 52.1
  },
  {
    "compound": "Cc1ccc(-c2cc(C(=O)Nc3ccc(S(=O)(=O)Nc4nccs4)cc3)c3ccccc3n2)c(C)c1",
    "measured attribute": "inhibition",
    "unit descriptor": "%",
    "result number": 69.9
  },
  {
    "compound": "CC(=O)O[C@@H]1[C@H]2[C@@H](C[C@@H](C)[C@@H]3C=CC(=O)[C@@]13C)OC(=O)[C@@H]2C",
    "measured attribute": "inhibition",
    "unit descriptor": "%",
    "result number": -0.99
  },
  {
    "compound": "CC(=O)c1csc(COc2ccc(Cl)cc2)n1",
    "measured attribute": "inhibition",
    "unit descriptor": "%",
    "result number": -4.98
  },
  {
    "compound": "O=C(Cc1ccccc1)Nc1cccc(N2CCCC2)c1",
    "measured attribute": "inhibition",
    "unit descriptor": "%",
    "result number": 2.44
  },
  {
    "compound": "O=C(Nc1nc2c(s1)CCCC2)c1cc(-c2ccccc2)nc2ccccc12",
    "measured attribute": "inhibition",
    "unit descriptor": "%",
    "result number": 14.1
  },
  {
    "compound": "Cc1ccc(-c2cc(C(=O)Nc3nccs3)c3ccccc3n2)o1",
    "measured attribute": "inhibition",
    "unit descriptor": "%",
    "result number": 12.8
  },
  {
    "compound": "O=C(CSc1nnc(-c2ccccc2NC(=O)c2ccccc2)o1)OC1CCCCC1",
    "measured attribute": "inhibition",
    "unit descriptor": "%",
    "result number": 61.5
  },
  {
    "compound": "Clc1ncnc2scc(-c3ccccc3)c12",
    "measured attribute": "inhibition",
    "unit descriptor": "%",
    "result number": -11.5
  },
  {
    "compound": "C#CCOCCOCCOCCNc1nc(N2CCN(C(=O)[C@H]([C@@H](C)CC)n3cc([C@@H](N)CC(C)C)nn3)CC2)nc(N2CCN(C(=O)[C@H](Cc3cc4ccccc4[nH]3)n3cc([C@@H](N)C(C)CC)nn3)CC2)n1 (stereo partly drawn)",
    "measured attribute": "inhibition",
    "unit descriptor": "%",
    "result number": 45.6
  },
  {
    "compound": "O=C(Nc1nc2c(s1)CCCC2)c1cc(-c2ccncc2)nc2ccccc12",
    "measured attribute": "inhibition",
    "unit descriptor": "%",
    "result number": 10.1
  },
  {
    "compound": "C[C@@H]1C[C@@H]2OC(=O)[C@]3(C)[C@H]2[C@@H](OC3(C)O)[C@]2(C)C(=O)C=C[C@H]12 (stereo partly drawn)",
    "measured attribute": "inhibition",
    "unit descriptor": "%",
    "result number": -4.34
  },
  {
    "compound": "CCOC(=O)C1CCCc2c1[nH]c1c(C(=O)O)cccc21 (stereo not drawn)",
    "measured attribute": "inhibition",
    "unit descriptor": "%",
    "result number": -6.94
  },
  {
    "compound": "CCCCn1nc2cc(C(=O)N(CC)c3ccc(OC)cc3)ccc2c1OCC",
    "measured attribute": "inhibition",
    "unit descriptor": "%",
    "result number": 0.26
  },
  {
    "compound": "C=C1C(=O)O[C@@H]2C[C@@H](C)[C@H]3C=CC(=O)[C@]3(O)C[C@@H]12",
    "measured attribute": "inhibition",
    "unit descriptor": "%",
    "result number": -7.5
  },
  {
    "compound": "CN(C)c1c(F)cc(C(=O)NCc2ccccc2)cc1F",
    "measured attribute": "inhibition",
    "unit descriptor": "%",
    "result number": -11.1
  },
  {
    "compound": "Cc1nc([N+](=O)[O-])c(Br)n1Cc1ccccc1",
    "measured attribute": "inhibition",
    "unit descriptor": "%",
    "result number": 28.8
  },
  {
    "compound": "COCCn1c(SCC(=O)Nc2ccccc2OC)nc2c(oc3ccccc32)c1=O",
    "measured attribute": "inhibition",
    "unit descriptor": "%",
    "result number": 3.65
  },
  {
    "compound": "O=C(Nc1nccs1)c1cc(-c2ccccc2)nc2ccccc12",
    "measured attribute": "inhibition",
    "unit descriptor": "%",
    "result number": 19
  },
  {
    "compound": "O=C(Nc1nc(-c2ccc(F)c(F)c2)cs1)c1cnccn1",
    "measured attribute": "inhibition",
    "unit descriptor": "%",
    "result number": 10.2
  },
  {
    "compound": "CCOC(=O)CSc1nnc(-c2ccccc2OC)o1",
    "measured attribute": "inhibition",
    "unit descriptor": "%",
    "result number": 10.6
  },
  {
    "compound": "Cc1nc(-c2cc(-c3nc(-c4ccc(C(F)(F)F)cc4)no3)no2)cs1",
    "measured attribute": "inhibition",
    "unit descriptor": "%",
    "result number": 7.08
  },
  {
    "compound": "Cn1nc(C(=O)Nc2sccc2C(N)=O)ccc1=O",
    "measured attribute": "inhibition",
    "unit descriptor": "%",
    "result number": -1.96
  },
  {
    "compound": "COC(=O)CSc1nnc(-c2ccccc2OC)o1",
    "measured attribute": "inhibition",
    "unit descriptor": "%",
    "result number": 1.84
  }
]
